Test system: IGROV-ET
measurementNotes: SRB colorimetric cell growth inhibition assay, IGROV-ET (ET-743 resistant)
Assay type: cell-based
conditionNotes: Homo sapiens, read-out: LC50 IGROV-ET, IGROV-ET; cell killing (cytotoxic effect)
Just a reminder that ties go to -1: only CC50 strictly below 8 µM counts as 1.

Query block: Is CC50 of COc1cc(-c2c3c4cc(OC)c(OC(=O)[C@@H](N)C(C)C)cc4oc(=O)c3n3ccc4c(OC(=O)[C@@H](N)C(C)C)c(OC)c(OC)cc4c23)ccc1OC(=O)[C@@H](N)C(C)C [Compound 35] strictly below 8 µM?
Result block: 1

Query block: Is CC50 of COc1cc(-c2c3c4cc(OC)c(OC(=O)[C@@H](N)CO)cc4oc(=O)c3n3ccc4c(OC(=O)[C@@H](N)CO)c(OC)c(OC)cc4c23)ccc1OC(=O)[C@@H](N)CO [Compound 9] strictly below 8 µM?
Result block: 1

Query block: Is CC50 of COc1cc(-c2c3n(c4c(=O)oc5cc(OC(=O)[C@H](N)C(C)C)c(OC)cc5c24)CCc2cc(OC(=O)[C@H](N)C(C)C)c(OC)cc2-3)ccc1OC(=O)[C@H](N)C(C)C [Compound 32] strictly below 8 µM?
Result block: -1

Query block: Is CC50 of COc1cc(-c2c3c4cc(OC)c(O)cc4oc(=O)c3n3ccc4cc(O)c(OC)cc4c23)ccc1O [Compound 3, lamellarin D, reference compound] strictly below 8 µM?
Result block: -1

----------
System: LoVo-Dox
measurementNotes: SRB colorimetric cell growth inhibition assay, LoVo-Dox (MDR)
Type: cell-based
conditionNotes: Homo sapiens, LOVO-DOX; total growth inhibition (cytostatic effect); read-out: TGI LOVO-DOX
readoutLabel: IC (TGI) (µM)
Quick reminder: number only, in µM, skip the unit.

Record summary for COc1cc2c(cc1OC)-c1c(-c3ccc(OC(=O)CCc4ccccc4)c(OC)c3)c3c4cc(OC)c(OC(=O)CCc5ccccc5)cc4oc(=O)c3n1CC2 [Compound 93] : reported IC (TGI) = 11.7

Record summary for C=CCOC(=O)N[C@@H](C)C(=O)Oc1ccc(-c2c3c4cc(OC)c(OC(=O)[C@H](C)NC(=O)OCC=C)cc4oc(=O)c3n3ccc4cc(OC(=O)[C@H](C)NC(=O)OCC=C)c(OC)cc4c23)cc1OC [Compound 210] : reported IC (TGI) = 6.04

Record summary for COc1cc(-c2c3n(c4c(=O)oc5cc(OC(=O)[C@@H](N)Cc6c[nH]c7ccccc67)c(OC)cc5c24)CCc2cc(OC(=O)[C@@H](N)Cc4c[nH]c5ccccc45)c(OC)cc2-3)ccc1OC(=O)[C@@H](N)Cc1c[nH]c2ccccc12 [Compound 24] : reported IC (TGI) = 3.66

----------
Test system: LoVo-Dox
measurementNotes: SRB colorimetric cell growth inhibition assay, LoVo-Dox (MDR)
Type: cell-based
conditionNotes: Homo sapiens, LOVO-DOX; total growth inhibition (cytostatic effect); read-out: TGI LOVO-DOX
Each entry gets False if its IC (TGI) stays under 3 µM, and True if its IC (TGI) is 3 µM or above.

Query block: Given `COc1cc(-c2c3n(c4c(=O)oc5cc(OC(=O)[C@H](C)N)c(OC)cc5c24)CCc2c-3cc(OC)c(OC)c2OC(=O)[C@H](C)N)ccc1OC(=O)[C@H](C)N` , state whether its IC (TGI) is at least 3 µM.
Result block: False

Query block: Given `COc1cc2ccn3c(c(-c4ccc(OC(=O)[C@@H](N)Cc5ccccc5)c(OC)c4)c4c5cc(OC)c(OC(=O)[C@@H](N)Cc6ccccc6)cc5oc(=O)c43)c2cc1OC` , state whether its IC (TGI) is at least 3 µM.
Result block: True

Query block: Given `COc1cc(-c2c3c4cc(OC)c(OC(=O)CCCCCN)cc4oc(=O)c3n3ccc4cc(OC(=O)CCCCCN)c(OC)cc4c23)ccc1OC(=O)CCCCCN` , state whether its IC (TGI) is at least 3 µM.
Result block: False

Query block: Given `COc1cc(-c2c3c4cc(OC)c(OC(C)C)cc4oc(=O)c3n3ccc4c(OC(C)C)c(OC)c(OC)cc4c23)ccc1OC(C)C` , state whether its IC (TGI) is at least 3 µM.
Result block: True

Query block: Given `COc1cc2ccn3c(c(-c4ccc(OS(=O)(=O)C(F)(F)F)c(OC)c4)c4c5cc(OC)c(OS(=O)(=O)C(F)(F)F)cc5oc(=O)c43)c2cc1OC` , state whether its IC (TGI) is at least 3 µM.
Result block: True

Query block: Given `COc1cc(-c2c3c4cc(OC)c(OC(=O)[C@@H](N)C(C)C)cc4oc(=O)c3n3ccc4cc(OC(=O)[C@@H](N)C(C)C)c(OC)cc4c23)ccc1OC(=O)[C@@H](N)C(C)C` , state whether its IC (TGI) is at least 3 µM.
Result block: False

Query block: Given `COc1cc(-c2c3c4cc(OC)c(OC(=O)[C@@H](N)CO)cc4oc(=O)c3n3ccc4c(OC(=O)[C@@H](N)CO)c(OC)c(OC)cc4c23)ccc1OC(=O)[C@@H](N)CO` , state whether its IC (TGI) is at least 3 µM.
Result block: False

Query block: Given `COc1cc(-c2c3n(c4c(=O)[nH]c5cc(O)c(OC)cc5c24)CCc2cc(O)c(OC)cc2-3)ccc1O` , state whether its IC (TGI) is at least 3 µM.
Result block: True

Query block: Given `CC[C@H](C)[C@H](NC(=O)OC(C)(C)C)C(=O)Oc1ccc(-c2c3c4cc(OC)c(OC(=O)[C@@H](NC(=O)OC(C)(C)C)[C@@H](C)CC)cc4oc(=O)c3n3ccc4cc(OC(=O)[C@@H](NC(=O)OC(C)(C)C)[C@@H](C)CC)c(OC)cc4c23)cc1OC` , state whether its IC (TGI) is at least 3 µM.
Result block: True

Query block: Given `COc1cc2ccn3c(c(-c4ccc(OC(=O)[C@@H](NC(=O)OC(C)(C)C)C(C)C)c(OC)c4)c4c5cc(OC)c(OC(=O)[C@@H](NC(=O)OC(C)(C)C)C(C)C)cc5oc(=O)c43)c2cc1OC` , state whether its IC (TGI) is at least 3 µM.
Result block: True

Query block: Given `COc1cc(-c2c3c4cc(OC)c(OC(=O)[C@H](C)NC(=O)OC(C)(C)C)cc4oc(=O)c3n3ccc4c(OC(=O)[C@H](C)NC(=O)OC(C)(C)C)c(OC)c(OC)cc4c23)ccc1OC(=O)[C@H](C)NC(=O)OC(C)(C)C` , state whether its IC (TGI) is at least 3 µM.
Result block: True

Query block: Given `COc1cc(-c2c3n(c4c(=O)oc5cc(OC(=O)CCc6ccccc6)c(OC)cc5c24)CCc2cc(OC(=O)CCc4ccccc4)c(OC)cc2-3)ccc1OC(=O)CCc1ccccc1` , state whether its IC (TGI) is at least 3 µM.
Result block: True

Query block: Given `COc1cc(-c2c3c4cc(OC)c(OC(=O)[C@@H](N)C(C)C)cc4oc(=O)c3n3ccc4c(OC(=O)[C@@H](N)C(C)C)c(OC)c(OC)cc4c23)ccc1OC(=O)[C@@H](N)C(C)C` , state whether its IC (TGI) is at least 3 µM.
Result block: False

Query block: Given `COc1cc(-c2c3c4cc(OC)c(OC(=O)[C@@H](N)Cc5ccccc5)cc4oc(=O)c3n3ccc4c(OC(=O)[C@@H](N)Cc5ccccc5)c(OC)c(OC)cc4c23)ccc1OC(=O)[C@@H](N)Cc1ccccc1` , state whether its IC (TGI) is at least 3 µM.
Result block: False

Query block: Given `COc1cc(-c2c3c4cc(OC)c(OC(=O)[C@H](N)C(C)C)cc4oc(=O)c3n3ccc4cc(OC(=O)[C@H](N)C(C)C)c(OC)cc4c23)ccc1OC(=O)[C@H](N)C(C)C` , state whether its IC (TGI) is at least 3 µM.
Result block: False

Query block: Given `COc1cc(-c2c3c4cc(OC)c(OC(=O)[C@H](C)NC(=O)[C@H](C)N)cc4oc(=O)c3n3ccc4c(OC(=O)[C@H](C)NC(=O)[C@H](C)N)c(OC)c(OC)cc4c23)ccc1OC(=O)[C@H](C)NC(=O)[C@H](C)N` , state whether its IC (TGI) is at least 3 µM.
Result block: False

Query block: Given `COc1cc(-c2c3n(c4c(=O)oc5cc(OC(=O)[C@@H](N)Cc6ccccc6)c(OC)cc5c24)CCc2cc(OC(=O)[C@@H](N)Cc4ccccc4)c(OC)cc2-3)ccc1OC(=O)[C@@H](N)Cc1ccccc1` , state whether its IC (TGI) is at least 3 µM.
Result block: True

Query block: Given `COc1cc(-c2c3n(c4c(=O)oc5cc(OC(=O)c6cc(F)c(F)c(F)c6F)c(OC)cc5c24)CCc2c-3cc(OC)c(OC)c2OC(=O)c2cc(F)c(F)c(F)c2F)ccc1OC(=O)c1cc(F)c(F)c(F)c1F` , state whether its IC (TGI) is at least 3 µM.
Result block: True

Query block: Given `COc1cc(-c2c3n(c4c(=O)oc5cc(O)c(OC)cc5c24)CCc2c-3cc(OC)c(OC)c2O)ccc1O` , state whether its IC (TGI) is at least 3 µM.
Result block: True

Entry source: patent US7396837B2
